Reported EC50, pseudovirus neutralization values follow for various binders
Biological target: BK virus VP1 protein, genotype II (BK virus)
Assay: cell-based or functional assay
REPORTED PROPERTY: EC50, pseudovirus neutralization (nM)

BINDER: 2A10 (antibody, V domains shown) VH: EVQLVQSGAEVKKPGESLKISCKGSGYSFTYYWIGWVRQMPGKGLEWMGIIYPGDSDTRYSPSFQGQVTISADKSISTAYLQWSSLKASDTAMYYCTTHARNWNNVAYWGQGTLVTVSS VL: DIQMTQSPSSLSASVGDRLTITCRASQNINTFLNWYQQNPGKAPKVLIYAASSLESGVPSRFSGSGSGTDFTLTISSLQPEDFATYYCQQSSSTPWTFGQGTKVEIK
SCALE UNIT: nM
ENDPOINT VALUE: 0.0094
--
BINDER: 4F7 (antibody, V domains shown) VH: QVQLVESGGDLVKPGGSLRLSCVASGFTFSDYYMNWIRLPPGKGLEWISYIDSSAGAIYYADSVKGRFTVSRDDAKNSLFLHMNNLRADDTAVYYCARERRDGHKIFDCWGPGTLVTVSS VL: DIVMTQSPDSLAVSLGERATINCKSSQNILYSSNNKNYLAWYQQKAGQPPKLLIFWSSTRESGVPDRFSGSGSGTDFTLTISSLQAEDVAVYYCQQYYSSPYNFGRGTTLEIK
SCALE UNIT: nM
ENDPOINT VALUE: 0.0319
--
BINDER: 1E2 (antibody, V domains shown) VH: QVQLVESGGDLVKPGGSLRLSCVASGFTFSDYYMNWIRLPPGKGLEWVSYIDSSAGAIYYADSVRGRFTVSRDDAKNSLFLHMNSLRADDTAVYYCARERRDGHKIFDCWGPGTLVTVSS VL: DIVMTQSPDSLAVSLGERATINCKSSQNILYSSNNKNYLAWYQQKAGQPPKLLIFWSSTRESGVPDRFSGSGSGTDFTLTINSLQAEDVAVYYCQQYYSSPYNFGRGTTLEIK
SCALE UNIT: nM
ENDPOINT VALUE: 0.0332
--
BINDER: 8D10 (antibody, V domains shown) VH: QVHLVESGGDLVKPGGSLRLSCVASGFTFSDYYMNWIRLPPGKGLEWISYIDSSAGAIYYADSVKGRFTVSRDDAKNSMFLHMNSLRADDTAVYYCARERRDGHKIFDYWGPGTLVTVSS VL: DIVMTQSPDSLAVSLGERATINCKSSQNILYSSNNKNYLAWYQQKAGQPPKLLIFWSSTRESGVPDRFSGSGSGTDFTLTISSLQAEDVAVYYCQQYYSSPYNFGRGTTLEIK
SCALE UNIT: nM
ENDPOINT VALUE: 0.0492
--
BINDER: 9B4 (antibody, V domains shown) VH: QVQLVESGGDLVKPGGSLRLSCVASGFTFSDYYMNWIRLPPGKGLEWISYIDSSAGAIYYADSVKGRFTVSRDDAKNSLFLHMNSLRADDTAVYYCARERREGHKIFDFWGPGTLVTVSS VL: DIVMTQSPDSLALSLGERATINCKSSQNILYSSNNKNYLACYQQKAGQPPKLLIFWSSTRESGVPDRFSGSGSGTDFTLTISSLQAEDVAVYYCQQYYSSPYNFGRGTTLEIK
SCALE UNIT: nM
ENDPOINT VALUE: 0.0152
--
BINDER: 1H10 (antibody, V domains shown) VH: QVHLVESGGDLVKPGGSLRLSCVASGFTFSDYYMNWIRMPPGKGLEWISYIDSSAGAIYYADSVKGRFTVSRDDAKNSLFLHMNNLRADDTAVYYCARERRDGHKIFDCWGPGTLVTVSS VL: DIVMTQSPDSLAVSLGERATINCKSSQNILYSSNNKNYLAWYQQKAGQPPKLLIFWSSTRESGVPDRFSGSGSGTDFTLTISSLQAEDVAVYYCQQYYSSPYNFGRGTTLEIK
SCALE UNIT: nM
ENDPOINT VALUE: 0.0028
